- experimental_target: CDK13 (Homo sapiens, UniProt Q14004)
- Sequence (Q14004 whole entry): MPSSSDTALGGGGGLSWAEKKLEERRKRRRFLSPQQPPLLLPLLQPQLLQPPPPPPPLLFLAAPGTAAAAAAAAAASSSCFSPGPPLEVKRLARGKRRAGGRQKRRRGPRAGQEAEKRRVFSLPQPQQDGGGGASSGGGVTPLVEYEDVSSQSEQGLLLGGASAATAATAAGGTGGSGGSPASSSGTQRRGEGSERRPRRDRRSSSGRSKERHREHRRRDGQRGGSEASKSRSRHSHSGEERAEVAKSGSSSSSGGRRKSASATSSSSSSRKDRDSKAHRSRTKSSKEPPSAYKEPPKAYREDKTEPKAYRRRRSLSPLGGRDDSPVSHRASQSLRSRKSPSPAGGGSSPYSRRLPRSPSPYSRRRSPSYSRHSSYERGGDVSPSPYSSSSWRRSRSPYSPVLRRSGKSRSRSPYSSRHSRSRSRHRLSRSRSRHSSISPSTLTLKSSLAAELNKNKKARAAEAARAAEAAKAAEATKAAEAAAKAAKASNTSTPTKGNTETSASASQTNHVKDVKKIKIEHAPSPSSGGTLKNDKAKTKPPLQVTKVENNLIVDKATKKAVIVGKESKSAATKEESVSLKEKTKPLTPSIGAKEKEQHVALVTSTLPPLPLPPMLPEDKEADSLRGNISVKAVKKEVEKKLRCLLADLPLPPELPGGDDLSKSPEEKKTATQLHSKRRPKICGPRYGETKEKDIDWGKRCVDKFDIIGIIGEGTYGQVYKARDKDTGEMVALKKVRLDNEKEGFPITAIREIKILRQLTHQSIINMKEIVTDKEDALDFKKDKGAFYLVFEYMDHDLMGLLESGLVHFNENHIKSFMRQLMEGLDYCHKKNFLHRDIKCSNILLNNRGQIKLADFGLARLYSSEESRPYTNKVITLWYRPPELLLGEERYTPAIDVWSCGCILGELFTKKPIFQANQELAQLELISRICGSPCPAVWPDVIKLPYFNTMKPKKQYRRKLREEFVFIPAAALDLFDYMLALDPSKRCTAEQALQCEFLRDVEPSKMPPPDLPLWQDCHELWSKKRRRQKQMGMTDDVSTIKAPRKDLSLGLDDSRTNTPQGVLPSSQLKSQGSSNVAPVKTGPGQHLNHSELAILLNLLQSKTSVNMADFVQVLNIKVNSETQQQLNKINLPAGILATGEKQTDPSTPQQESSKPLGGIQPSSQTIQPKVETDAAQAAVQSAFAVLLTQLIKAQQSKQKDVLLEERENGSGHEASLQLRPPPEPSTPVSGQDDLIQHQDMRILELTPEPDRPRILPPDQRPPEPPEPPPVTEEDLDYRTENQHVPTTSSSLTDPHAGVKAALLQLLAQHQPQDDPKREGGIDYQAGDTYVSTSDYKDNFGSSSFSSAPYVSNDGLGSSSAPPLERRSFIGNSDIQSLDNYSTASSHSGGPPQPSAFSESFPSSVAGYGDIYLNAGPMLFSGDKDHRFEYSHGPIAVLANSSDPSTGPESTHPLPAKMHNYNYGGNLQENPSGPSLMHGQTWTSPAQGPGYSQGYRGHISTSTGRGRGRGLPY
- Sequence (O75909 whole entry partner): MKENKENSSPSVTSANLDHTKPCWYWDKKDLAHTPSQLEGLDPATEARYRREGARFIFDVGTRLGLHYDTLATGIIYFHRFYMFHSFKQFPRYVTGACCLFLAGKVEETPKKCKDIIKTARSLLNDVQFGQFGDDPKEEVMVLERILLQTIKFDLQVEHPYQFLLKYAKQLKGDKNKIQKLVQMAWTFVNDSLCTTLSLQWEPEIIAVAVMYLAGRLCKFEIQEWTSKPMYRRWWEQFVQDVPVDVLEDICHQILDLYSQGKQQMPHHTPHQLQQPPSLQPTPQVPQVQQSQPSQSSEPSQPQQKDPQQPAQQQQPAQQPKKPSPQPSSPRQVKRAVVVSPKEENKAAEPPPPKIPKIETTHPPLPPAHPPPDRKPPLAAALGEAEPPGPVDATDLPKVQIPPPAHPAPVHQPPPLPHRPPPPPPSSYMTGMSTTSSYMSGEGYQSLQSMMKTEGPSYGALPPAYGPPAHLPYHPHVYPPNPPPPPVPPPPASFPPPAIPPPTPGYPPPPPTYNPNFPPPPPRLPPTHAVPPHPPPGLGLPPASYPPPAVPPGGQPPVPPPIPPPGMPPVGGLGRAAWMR
- assay_details: Western blot degradation of CDK13 (Example 2)
- Type: cell-based
- Set-up: degradation of CDK12/13 protein in leukemia cells KASUMI-1, MV4-11, and Jurkat; endogenous in cells
- condition_parameters: DC50 classes; cell line not given; read-out: CDK13 degradation Activity
quantity: DC50

Q: Using the record for Cc1ncsc1-c1ccc([C@H](C)NC(=O)[C@@H]2C[C@@H](O)CN2C(=O)[C@@H](NC(=O)COCCOCCOCCOCCOCCn2cc(-c3ccc(N(C(=O)NCc4ccccc4)[C@H]4CC[C@H](Nc5ccc(C#N)cn5)CC4)cc3)ccc2=O)C(C)(C)C)cc1 [Formula 60] , report its DC50.
A: 0.5 to 1 µM

Further cases:
Q: Using the record for Cc1ncsc1-c1ccc([C@H](C)NC(=O)[C@@H]2C[C@@H](O)CN2C(=O)[C@@H](NC(=O)CN2CCN(c3ccc(-c4ccc(N(C(=O)NCc5ccccc5)[C@H]5CC[C@H](Nc6ccc(C#N)cn6)CC5)cc4)cn3)CC2)C(C)(C)C)cc1 [Formula 78] , report its DC50.
A: < 0.1 µM

Q: Using the record for Cc1ncsc1-c1ccc([C@H](C)NC(=O)[C@@H]2C[C@@H](O)CN2C(=O)[C@@H](NC(=O)CN2CCN(c3ccc(-c4ccc(N(C(=O)NCc5ccccc5)[C@H]5CC[C@H](Nc6ccc(C#N)cn6)CC5)cc4)cn3)CC2)C(C)(C)C)cc1 [Formula 18] , report its DC50.
A: < 0.1 µM

Q: Using the record for N#Cc1ccc(N[C@H]2CC[C@H](N(C(=O)NCc3ccccc3)c3ccc(N4CCN(CCOCCOCCOCCOCCNc5cccc6c5C(=O)N(C5CCC(=O)NC5=O)C6=O)CC4)cc3)CC2)nc1 (stereo partly drawn) [Formula 41] , report its DC50.
A: 1 to 3 µM

Q: Using the record for Cc1ncsc1-c1ccc([C@H](C)NC(=O)[C@@H]2C[C@@H](O)CN2C(=O)[C@@H](NC(=O)C2CC3(CC(Nc4ccc(-c5ccc(N(C(=O)NCc6ccccc6)[C@H]6CC[C@H](Nc7ccc(C#N)cn7)CC6)cc5)cn4)C3)C2)C(C)(C)C)cc1 (stereo partly drawn) [Formula 28] , report its DC50.
A: 3 to 10 µM

Q: Using the record for Cc1ncsc1-c1ccc([C@H](C)NC(=O)[C@@H]2C[C@@H](O)CN2C(=O)[C@@H](NC(=O)CN2CCN(c3ccc(-c4ccc(N(C(=O)NCc5ccccc5)[C@H]5CC[C@H](Nc6ccc(C#N)cn6)CC5)cc4)cn3)CC2)C(C)(C)C)cc1 [Formula 76] , report its DC50.
A: < 0.1 µM

* * *

Listed molecules paired with reported DC50
- experimental_target: CDK13 (Homo sapiens, UniProt Q14004)
- assay_details: Western blot degradation of CDK13 (Example 2)
- Type: cell-based
- Set-up: degradation of CDK12/13 protein in leukemia cells KASUMI-1, MV4-11, and Jurkat; endogenous in cells
- condition_parameters: DC50 classes; cell line not given; read-out: CDK13 degradation Activity

Q: Please provide the recorded DC50 for Cc1ncsc1-c1ccc([C@H](C)NC(=O)[C@@H]2C[C@@H](O)CN2C(=O)[C@@H](NC(=O)CC#CCCOc2ccc(-c3ccc(N(C(=O)NCc4ccccc4)[C@H]4CC[C@H](Nc5ccc(C#N)cn5)CC4)cc3)cn2)C(C)(C)C)cc1 [Formula 13] , tested on CDK13 (Homo sapiens, UniProt Q14004).
A: 3 to 10 µM

Further cases:
Q: Please provide the recorded DC50 for Cc1ncsc1-c1ccc([C@H](C)NC(=O)[C@@H]2C[C@@H](O)CN2C(=O)[C@@H](NC(=O)CN2CCC(n3cc(-c4ccc(N(C(=O)NCc5ccccc5)[C@H]5CC[C@H](Nc6ccc(C#N)cn6)CC5)cc4)cn3)CC2)C(C)(C)C)cc1 [Formula 31] , tested on CDK13 (Homo sapiens, UniProt Q14004).
A: 3 to 10 µM

Q: Please provide the recorded DC50 for N#Cc1ccc(N[C@H]2CC[C@H](N(C(=O)NCc3ccccc3)c3ccc(-c4ccc(=O)n(CCOCCOCCOCCOCCOCCNc5cccc6c5C(=O)N(C5CCC(=O)NC5=O)C6=O)c4)cc3)CC2)nc1 (stereo partly shown) [Formula 50] , tested on CDK13 (Homo sapiens, UniProt Q14004).
A: 3 to 10 µM

Q: Please provide the recorded DC50 for CCNC(=O)N(c1ccc(-c2ccc(OCCOCCOCCOCCNc3cccc4c3C(=O)N(C3CCC(=O)NC3=O)C4=O)nc2)cc1)[C@H]1CC[C@H](Nc2ccc(C#N)cn2)CC1 (stereo partly shown) [Formula 43] , tested on CDK13 (Homo sapiens, UniProt Q14004).
A: 1 to 3 µM

Q: Please provide the recorded DC50 for N#Cc1ccc(N[C@H]2CC[C@H](N(C(=O)NCc3ccccc3)c3ccc(-c4ccc(OCCOCCOCCOCCOCCNc5cccc6c5C(=O)N(C5CCC(=O)NC5=O)C6=O)nc4)cc3)CC2)nc1 (stereo partly shown) [Formula 35] , tested on CDK13 (Homo sapiens, UniProt Q14004).
A: 3 to 10 µM

Q: Please provide the recorded DC50 for Cc1ncsc1-c1ccc([C@H](C)NC(=O)[C@@H]2C[C@@H](O)CN2C(=O)[C@@H](NC(=O)COCCOCCOCCOCCOc2ccc(-c3ccc(N(C(=O)NCc4ccccc4)[C@H]4CC[C@H](Nc5ccc(C#N)cn5)CC4)cc3)cn2)C(C)(C)C)cc1 [Formula 4] , tested on CDK13 (Homo sapiens, UniProt Q14004).
A: 3 to 10 µM

Q: Please provide the recorded DC50 for N#Cc1ccc(N[C@H]2CC[C@H](N(C(=O)NCc3ccccc3)c3ccc(N4CCN(CCOCCNc5cccc6c5C(=O)N(C5CCC(=O)NC5=O)C6=O)CC4)cc3)CC2)nc1 (stereo partly shown) [Formula 38] , tested on CDK13 (Homo sapiens, UniProt Q14004).
A: 1 to 3 µM
